Molecular target: fusion protein PRI
Sequence (chain, as listed by the source): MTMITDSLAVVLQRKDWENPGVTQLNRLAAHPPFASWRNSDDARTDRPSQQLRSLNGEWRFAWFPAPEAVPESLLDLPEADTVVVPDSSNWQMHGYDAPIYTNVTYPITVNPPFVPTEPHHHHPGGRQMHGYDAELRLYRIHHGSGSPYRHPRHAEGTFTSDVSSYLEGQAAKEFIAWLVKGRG
quantity_measured: relative cleavage efficiency

protein: OmpT protease variant OmpT D97E (protein) STETLSFTPDNINADISLGTLSGKTKERVYLAEEGGRKVSQLDWKFNNAAIIKGAINWDLMPQISIGAAGWTTLGSRGGNMVDQDWMDSSNPGTWTEESRHPDTQLNYANEFDLNIKGWLLNEPNYRLGLMAGYQESRYSFTARGGSYIYSSEEGFRDDIGSFPNGERAIGYKQRFKMPYIGLTGSYRYEDFELGGTFKYSGWVESSDNDEHYDPGKRITYRSKVKDQNYYSVAVNAGYYVTPNAKVYVEGAWNRVTNKKGNTSLYDHNNNTSDYSKNGAGIENYNFITTAGLKYTF
relative cleavage efficiency: < 3%

Q: Please look up its relative cleavage efficiency: OmpT protease variant OmpT D97H (protein) STETLSFTPDNINADISLGTLSGKTKERVYLAEEGGRKVSQLDWKFNNAAIIKGAINWDLMPQISIGAAGWTTLGSRGGNMVDQDWMDSSNPGTWTHESRHPDTQLNYANEFDLNIKGWLLNEPNYRLGLMAGYQESRYSFTARGGSYIYSSEEGFRDDIGSFPNGERAIGYKQRFKMPYIGLTGSYRYEDFELGGTFKYSGWVESSDNDEHYDPGKRITYRSKVKDQNYYSVAVNAGYYVTPNAKVYVEGAWNRVTNKKGNTSLYDHNNNTSDYSKNGAGIENYNFITTAGLKYTF
A: 3.1%

Q: Please look up its relative cleavage efficiency: OmpT protease variant OmpT D97T (protein) STETLSFTPDNINADISLGTLSGKTKERVYLAEEGGRKVSQLDWKFNNAAIIKGAINWDLMPQISIGAAGWTTLGSRGGNMVDQDWMDSSNPGTWTTESRHPDTQLNYANEFDLNIKGWLLNEPNYRLGLMAGYQESRYSFTARGGSYIYSSEEGFRDDIGSFPNGERAIGYKQRFKMPYIGLTGSYRYEDFELGGTFKYSGWVESSDNDEHYDPGKRITYRSKVKDQNYYSVAVNAGYYVTPNAKVYVEGAWNRVTNKKGNTSLYDHNNNTSDYSKNGAGIENYNFITTAGLKYTF
A: < 3%

Q: Please look up its relative cleavage efficiency: OmpT protease variant OmpT D97N (protein) STETLSFTPDNINADISLGTLSGKTKERVYLAEEGGRKVSQLDWKFNNAAIIKGAINWDLMPQISIGAAGWTTLGSRGGNMVDQDWMDSSNPGTWTNESRHPDTQLNYANEFDLNIKGWLLNEPNYRLGLMAGYQESRYSFTARGGSYIYSSEEGFRDDIGSFPNGERAIGYKQRFKMPYIGLTGSYRYEDFELGGTFKYSGWVESSDNDEHYDPGKRITYRSKVKDQNYYSVAVNAGYYVTPNAKVYVEGAWNRVTNKKGNTSLYDHNNNTSDYSKNGAGIENYNFITTAGLKYTF
A: < 3%
